The values you see were collected from PubChem BioAssay AID2060897.

# System: 966289-007-R4-J1-PDC complex spheroid viability
# ASSAY_NAME: Anticancer human tumor 966289-007-R4-J1-PDC patient-derived pancreatic adenocarcinoma cell line growth inhibition [RAS]
# CONDITION_NOTES: second compound 0.00316 µM; first compound 3.16 µM; hits give low values
Overview of reported viability, T/C across a group of compounds:
Your answer is read as %, so omit the unit and give the number.

COMPOUND	UNIT_LABEL	viability, T/C
CC(=O)OC12COC1CC(O)C1(C)C(=O)C(O)C3=C(C)C(OC(=O)C(O)C(NC(=O)OC(C)(C)C)c4ccccc4)CC(O)(C(OC(=O)c4ccccc4)C21)C3(C)C (stereo not drawn) + C=CC(=O)N1CCN(c2nc(OCC3CCCN3C)nc3c(F)c(-c4nc(N)cc(C)c4C(F)(F)F)c(Cl)cc23)C(C)C1	%	30.4
Cc1nc(N2CCC3(CC2)COC(C)C3N)c(CO)nc1Sc1ccnc(N)c1Cl (stereo not drawn) + C=CC(=O)N1CCN(c2nc(OCC3CCCN3C)nc3c(F)c(-c4nc(N)cc(C)c4C(F)(F)F)c(Cl)cc23)C(C)C1	%	106

Reported viability, T/C for 966289-007-R4-J1-PDC complex spheroid viability, given NC1c2ccccc2OC12CCN(c1cnc3c(N4CCCc5ncccc54)n[nH]c3n1)CC2 (stereo not drawn) + C=CC(=O)N1CCN(c2nc(OCC3CCCN3C)nc3c(F)c(-c4nc(N)cc(C)c4C(F)(F)F)c(Cl)cc23)C(C)C1 ?
113

----------
# System: 966289-007-R4-J1-PDC complex spheroid viability
# ASSAY_NAME: Anticancer human tumor 966289-007-R4-J1-PDC cell line growth inhibition [RAS];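 further: spheroids exposed to agents for one week before readout; percent viability relative to DMSO vehicle control wells as 100%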
# CONDITION_NOTES: second compound 0.3 µM; first compound 0.1 µM; hits give low values
OUTCOME_MEASURE: viability, T/C (%)
API: value field is a number in %; no unit string.

If you can, please state the reported viability, T/C value of C=CC(=O)Nc1cc(Nc2nccc(-c3cn(C)c4ccccc34)n2)c(OC)cc1N(C)CCN(C)C + CCn1c(-c2cc(N3CCN(C)CC3)cnc2C(C)OC)c2c3cc(ccc31)-c1csc(n1)CC(NC(=O)C1CC1C)C(=O)N1CCCC(N1)C(=O)OCC(C)(C)C2 .
143

Name the reported viability, T/C value associated with the compound CC(C)n1nc(-c2ccc3oc(N)nc3c2)c2c(N)ncnc21 + CCn1c(-c2cc(N3CCN(C)CC3)cnc2C(C)OC)c2c3cc(ccc31)-c1csc(n1)CC(NC(=O)C1CC1C)C(=O)N1CCCC(N1)C(=O)OCC(C)(C)C2
16.6

Please look up its viability, T/C: CC1(O)CCCC1n1c(=O)c(C(F)F)cc2cnc(NC3CCN(S(C)(=O)=O)CC3)nc21 (centres undefined) + CCn1c(-c2cccnc2C(C)OC)c2c3cc(ccc31)N1CCOC(CC(NC(=O)C(C(C)C)N(C)C(=O)C3(F)CCN(C(=O)C#CC(C)(C)N(C)C)CC3)C(=O)N3CCCC(N3)C(=O)OCC(C)(C)C2)C1
52.2

Item O=C(c1ccc(F)c(F)c1Nc1ccc(I)cc1F)N1CC(O)([C@@H]2CCCCN2)C1 + CCn1c(-c2cccnc2C(C)OC)c2c3cc(ccc31)N1CCOC(CC(NC(=O)C(C(C)C)N(C)C(=O)C3(F)CCN(C(=O)C#CC(C)(C)N(C)C)CC3)C(=O)N3CCCC(N3)C(=O)OCC(C)(C)C2)C1 has what recorded viability, T/C?
82.9

----------
Parameter: viability, T/C. Scope: all listed entries.
# Tested on: 966289-007-R4-J1-PDC complex spheroid viability
# ASSAY_NAME: Anticancer human tumor 966289-007-R4-J1-PDC cell line growth inhibition [RAS];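 further: spheroids exposed to agents for one week before readout; percent viability relative to DMSO vehicle control wells as 100%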
# CONDITION_NOTES: second compound 0.00949 µM; first compound 1 µM; hits give low values
# number only, unit % dropped from output

COMPOUND	RECORDED_VALUE
Cc1nc(N2CCC3(CC2)COC(C)C3N)c(CO)nc1Sc1ccnc(N)c1Cl (centres undefined) + CCn1c(-c2cc(N3CCN(C)CC3)cnc2C(C)OC)c2c3cc(ccc31)-c1csc(n1)CC(NC(=O)C1CC1C)C(=O)N1CCCC(N1)C(=O)OCC(C)(C)C2	122
NC1c2ccccc2OC12CCN(c1cnc3c(N4CCCc5ncccc54)n[nH]c3n1)CC2 (centres undefined) + CCn1c(-c2cccnc2C(C)OC)c2c3cc(ccc31)N1CCOC(CC(NC(=O)C(C(C)C)N(C)C(=O)C3(F)CCN(C(=O)C#CC(C)(C)N(C)C)CC3)C(=O)N3CCCC(N3)C(=O)OCC(C)(C)C2)C1	88.4

# query: viability, T/C of entry CC(C)NCC(C(=O)N1CCN(c2ncnc3c2C(C)CC3O)CC1)c1ccc(Cl)cc1 (centres undefined) + CCn1c(-c2cc(N3CCN(C)CC3)cnc2C(C)OC)c2c3cc(ccc31)-c1csc(n1)CC(NC(=O)C1CC1C)C(=O)N1CCCC(N1)C(=O)OCC(C)(C)C2
97.2

# get_value(readout='viability, T/C', item= CC(=O)OC12COC1CC(O)C1(C)C(=O)C(O)C3=C(C)C(OC(=O)C(O)C(NC(=O)OC(C)(C)C)c4ccccc4)CC(O)(C(OC(=O)c4ccccc4)C21)C3(C)C (centres undefined) + CCn1c(-c2cc(N3CCN(C)CC3)cnc2C(C)OC)c2c3cc(ccc31)-c1csc(n1)CC(NC(=O)C1CC1C)C(=O)N1CCCC(N1)C(=O)OCC(C)(C)C2 )
16.5

----------
# Test system: 966289-007-R4-J1-PDC complex spheroid viability
# ASSAY_NAME: Anticancer human tumor 966289-007-R4-J1-PDC cell line growth inhibition [RAS]; active = viability on the fitted dose curve at most 10% of control; inactive = the rest;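 further: spheroids exposed to agents for one week before readout; percent viability relative to DMSO vehicle control wells as 100%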
# CONDITION_NOTES: second compound 0.003 µM; first compound 0.0316 µM
Lab note: assign the record to one of 1.0 (active), 0.0 (inactive)

COMPOUND	GROUP
C[C@@H](NC(=O)c1ncnc(N)c1Cl)c1ncc(C(=O)Nc2cc(C(F)(F)F)c(Cl)cn2)s1 + CCn1c(-c2cc(N3CCN(C)CC3)cnc2C(C)OC)c2c3cc(ccc31)-c1csc(n1)CC(NC(=O)C1CC1C)C(=O)N1CCCC(N1)C(=O)OCC(C)(C)C2	0.0

Look up the recorded call for C[C@@H](NC(=O)c1ncnc(N)c1Cl)c1ncc(C(=O)Nc2cc(C(F)(F)F)c(Cl)cn2)s1 + CCn1c(-c2cccnc2C(C)OC)c2c3cc(ccc31)N1CCOC(CC(NC(=O)C(C(C)C)N(C)C(=O)C3(F)CCN(C(=O)C#CC(C)(C)N(C)C)CC3)C(=O)N3CCCC(N3)C(=O)OCC(C)(C)C2)C1 in this test.
0.0

Recorded call for CCN1CCN(Cc2ccc(Nc3ncc(F)c(-c4cc(F)c5nc(C)n(C(C)C)c5c4)n3)nc2)CC1 + CCn1c(-c2cccnc2C(C)OC)c2c3cc(ccc31)N1CCOC(CC(NC(=O)C(C(C)C)N(C)C(=O)C3(F)CCN(C(=O)C#CC(C)(C)N(C)C)CC3)C(=O)N3CCCC(N3)C(=O)OCC(C)(C)C2)C1 ?
0.0

Please share the test call associated with CC(=O)OC12COC1CC(O)C1(C)C(=O)C(O)C3=C(C)C(OC(=O)C(O)C(NC(=O)OC(C)(C)C)c4ccccc4)CC(O)(C(OC(=O)c4ccccc4)C21)C3(C)C (configuration not stated) + CCn1c(-c2cc(N3CCN(C)CC3)cnc2C(C)OC)c2c3cc(ccc31)-c1csc(n1)CC(NC(=O)C1CC1C)C(=O)N1CCCC(N1)C(=O)OCC(C)(C)C2 .
1.0

Could you please tell me the result logged for O=C(c1ccc(F)c(F)c1Nc1ccc(I)cc1F)N1CC(O)([C@@H]2CCCCN2)C1 + CCn1c(-c2cccnc2C(C)OC)c2c3cc(ccc31)N1CCOC(CC(NC(=O)C(C(C)C)N(C)C(=O)C3(F)CCN(C(=O)C#CC(C)(C)N(C)C)CC3)C(=O)N3CCCC(N3)C(=O)OCC(C)(C)C2)C1 in this assay?
0.0

Give the logged outcome of this assay for the following compound: CC(Nc1ccc2c(c1)OCCn1cc(N3C(=O)OCC3C(F)F)nc1-2)C(N)=O (configuration not stated) + CCn1c(-c2cc(N3CCN(C)CC3)cnc2C(C)OC)c2c3cc(ccc31)-c1csc(n1)CC(NC(=O)C1CC1C)C(=O)N1CCCC(N1)C(=O)OCC(C)(C)C2
0.0

Any idea what this test logged for CC(=O)OC12COC1CC(O)C1(C)C(=O)C(O)C3=C(C)C(OC(=O)C(O)C(NC(=O)OC(C)(C)C)c4ccccc4)CC(O)(C(OC(=O)c4ccccc4)C21)C3(C)C (configuration not stated) + CCn1c(-c2cccnc2C(C)OC)c2c3cc(ccc31)N1CCOC(CC(NC(=O)C(C(C)C)N(C)C(=O)C3(F)CCN(C(=O)C#CC(C)(C)N(C)C)CC3)C(=O)N3CCCC(N3)C(=O)OCC(C)(C)C2)C1 ?
1.0
